# System: MS2 coat protein
# procedure_summary: apparent KD of MS2 coat protein; designed switch direction (-1 OFF switch, 1 ON switch): -1; higher = weaker reporter binding
# condition_notes: input ligand: microRNA oligo, concentration not stated
Parameter: apparent KD of MS2 coat protein. Scope: all listed entries.
Numbers only here, please. The scale is nM.

Field: example entries. Status: answers known.
| sequence_entry | readout_label | meas_value |
| --- | --- | --- |
| UAAGAAUACUGAGGAUAUGCUAGUUUAUCUCAAGCAGAAGGCGGACUCAACAUGAGGAUCACCCAUGUAAGACGGGUACUAGAU [Ex NG1 #13] (Eterna round: R96, puzzle: Exclusion NG 1) | apparent KD of MS2 coat protein | 59 |
| GCGGACUUGAACGUGAGUUCAGAGACAUGAGGAUCACCCAUGUAGGAUAUCGAUUCGAAACGAAUCGAGAAGGGCAUAGUCCGC [JL denovo 13] (Eterna round: R96, puzzle: Exclusion NG 3) | apparent KD of MS2 coat protein | 11.8 |

Next, consider the following sequence.
Please provide the recorded apparent KD of MS2 coat protein for UCACGGGAUUGAGGAUAUAUAUAAAUUUAUACAAUAGAAGGCAAAUUUUUAGUUUUUUCACUUUACAUGAGGAUCACCCAUGUU [JR_ExcBG1_Sub083] (Eterna round: R96, puzzle: Exclusion NG 1) , tested on MS2 coat protein. 20.1
